Target: Neuromedin-U receptor 2 (Homo sapiens)
Sequence (Q9GZQ4 whole entry): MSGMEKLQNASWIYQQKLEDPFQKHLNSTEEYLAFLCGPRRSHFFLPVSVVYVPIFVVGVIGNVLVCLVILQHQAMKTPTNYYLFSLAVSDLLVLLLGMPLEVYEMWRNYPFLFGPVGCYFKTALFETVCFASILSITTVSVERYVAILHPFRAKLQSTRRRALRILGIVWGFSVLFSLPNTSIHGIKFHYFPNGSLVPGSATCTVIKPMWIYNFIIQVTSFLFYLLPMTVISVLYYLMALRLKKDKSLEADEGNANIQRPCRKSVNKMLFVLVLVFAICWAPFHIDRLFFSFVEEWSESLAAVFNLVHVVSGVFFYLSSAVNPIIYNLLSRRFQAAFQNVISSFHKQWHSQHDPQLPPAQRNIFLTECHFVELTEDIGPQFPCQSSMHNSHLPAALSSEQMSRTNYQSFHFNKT
Assay: Agonist activity at human NMUR2 expressed in CHO cells assessed as intracellular calcium flux at 1 and 10 nM by Fluo-4 AM dye based fluorometric imaging method relative to 1000 nM human neuromedin U
Format: functional, cell-based
Calls of active or inactive are those of the source. No cut-off for these calls is given here. Non-standard residues stand in square brackets, D forms with d. Residues, ends and D or L forms follow the SMILES beside them. *: point of attachment. Propanoyl(3-(3-pyridyl)) = O=C(CCc1cccnc1)*; Acetyl(2-thienyl) = O=C(Cc1cccs1)*; Hydrocinnamoyl = O=C(CCc1ccccc1)*; 2Thi = N[C@@H](Cc1cccs1)C(=O)O
Labels: active, inactive

>  <Molecule>
N=C(N)NCCC[C@H](NC(=O)[C@@H]1CCCN1C(=O)[C@H](CCCNC(=N)N)NC(=O)[C@H](Cc1c[nH]cn1)NC(=O)[C@H](Cc1c[nH]c2ccccc12)NC(=O)Cc1cccs1)C(=O)N[C@@H](CC(N)=O)C(N)=O ({Acetyl(2-thienyl)}-WHRPRN-NH2)

>  <Category Label>
inactive

$$$$
>  <Molecule>
N=C(N)NCCC[C@H](NC(=O)[C@@H]1CCCN1C(=O)[C@H](CCCNC(=N)N)NC(=O)[C@H](Cc1ccccc1)NC(=O)[C@H](Cc1ccccc1)NC(=O)CCc1cccnc1)C(=O)N[C@@H](CC(N)=O)C(N)=O ({Propanoyl(3-(3-pyridyl))}-FFRPRN-NH2)

>  <Category Label>
active

$$$$
>  <Molecule>
N=C(N)NCCC[C@H](NC(=O)[C@@H]1CCCN1C(=O)[C@H](CCCNC(=N)N)NC(=O)[C@H](Cc1cccs1)NC(=O)[C@H](Cc1c[nH]c2ccccc12)NC(=O)Cc1cccs1)C(=O)N[C@@H](CC(N)=O)C(N)=O ({Acetyl(2-thienyl)}-W[2Thi]RPRN-NH2)

>  <Category Label>
active

$$$$
>  <Molecule>
N=C(N)NCCC[C@H](NC(=O)[C@@H]1CCCN1C(=O)[C@H](CCCNC(=N)N)NC(=O)[C@H](Cc1ccccc1)NC(=O)[C@H](Cc1ccccc1)NC(=O)CCc1ccccc1)C(=O)N[C@@H](CC(N)=O)C(N)=O (Hydrocinnamoyl-FFRPRN-NH2)

>  <Category Label>
inactive

$$$$
